Read-out: catalase (CAT), CAT (gene 847)
Assay: LTEA_HepaRG_CAT: Life Technologies and Expression Analysis (LTEA) Assay for catalase (CAT) using HepaRG (AID 2283452)
Conditions: mRNA level, 48 h; actives raise or lower the signal
Calls of active or inactive are those of the source. How the source made its calls: active means hit-call score of the fitted dose curve at least 0.9, where 1 is the maximum; inactive means score below 0.9.
Pick one: class 1 (active), class 0 (inactive)

NC(=O)c1nc(-c2cccc(-c3cc(F)ccc3OCC(F)(F)C(F)(F)F)c2)n[nH]1 | class 1
Cc1cn([C@H]2C[C@H](N=[N+]=[N-])[C@@H](CO)O2)c(=O)[nH]c1=O | class 0
O=C(O)Cn1c(=O)n(Cc2ccc(Br)cc2F)c(=O)c2ccc(Cl)cc21 | class 0
c1ccc2n[nH]nc2c1 | class 0
Cc1cc(F)ccc1-c1cc(N2CC[C@@H](O)[C@H]2CO)ncc1N(C)C(=O)C(C)(C)c1cc(C(F)(F)F)cc(C(F)(F)F)c1 | class 1
CO[C@H]1/C=C/O[C@@]2(C)Oc3c(C)c(O)c4c(O)c(c(/C=N/N5CCN(C)CC5)c(O)c4c3C2=O)NC(=O)/C(C)=C\C=C\[C@H](C)[C@H](O)[C@@H](C)[C@@H](O)[C@@H](C)[C@H](OC(C)=O)[C@@H]1C | class 0
CCCCCCCCOC(=O)c1cc(O)c(O)c(O)c1 | class 0
CCCCCc1ccc(N)cc1 | class 0

## Task Write down the call the test reported for this compound. Item: O=C(OCCCCCCOC(=O)c1ccccc1)c1ccccc1
## Result class 0

## Task Continue with CC(C)(c1cc(Br)c(O)c(Br)c1)c1cc(Br)c(O)c(Br)c1
## Result class 0
